- Assayed system: abc isoform of human TMEM16A channel expressed in CHO cells (Homo sapiens, UniProt Q5XXA6, DEL476-501)
- Construct: expressed in transfected cells; host or cells: CHO cells, doxycycline-inducible expression under Blasticidin/Zeocin selection
- Sequence (Q5XXA6 with tags, fused parts or gaps isoform Q5XXA6-5 DEL539-564): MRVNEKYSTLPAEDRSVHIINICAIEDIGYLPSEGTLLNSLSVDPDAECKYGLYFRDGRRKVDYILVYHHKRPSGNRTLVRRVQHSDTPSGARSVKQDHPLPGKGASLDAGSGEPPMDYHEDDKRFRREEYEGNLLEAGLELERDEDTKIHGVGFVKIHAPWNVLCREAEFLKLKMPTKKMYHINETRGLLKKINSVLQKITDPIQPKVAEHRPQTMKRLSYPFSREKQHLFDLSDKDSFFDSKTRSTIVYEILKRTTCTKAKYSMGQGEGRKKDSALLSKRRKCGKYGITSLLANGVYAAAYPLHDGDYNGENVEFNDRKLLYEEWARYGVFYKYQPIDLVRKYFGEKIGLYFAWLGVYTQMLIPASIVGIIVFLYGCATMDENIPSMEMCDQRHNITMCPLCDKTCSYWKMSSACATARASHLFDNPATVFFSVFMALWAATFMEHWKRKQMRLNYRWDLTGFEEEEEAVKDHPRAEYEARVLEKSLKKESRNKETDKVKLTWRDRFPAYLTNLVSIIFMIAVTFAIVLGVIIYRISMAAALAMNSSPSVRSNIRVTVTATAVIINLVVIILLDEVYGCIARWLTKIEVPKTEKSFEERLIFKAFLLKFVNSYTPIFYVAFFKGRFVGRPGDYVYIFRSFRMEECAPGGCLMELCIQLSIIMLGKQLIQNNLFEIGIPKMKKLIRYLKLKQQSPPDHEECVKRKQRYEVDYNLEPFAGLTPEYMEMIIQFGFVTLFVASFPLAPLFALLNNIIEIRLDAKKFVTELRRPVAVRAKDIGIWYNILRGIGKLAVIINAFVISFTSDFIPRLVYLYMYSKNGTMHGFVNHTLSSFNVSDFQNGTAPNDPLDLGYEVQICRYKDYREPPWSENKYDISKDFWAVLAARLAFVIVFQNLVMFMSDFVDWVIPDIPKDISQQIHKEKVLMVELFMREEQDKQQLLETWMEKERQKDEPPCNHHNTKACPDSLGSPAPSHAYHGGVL
- Measurement protocol: Automated patch clamping (QPatch) assay to measure TMEM16A activity in whole-cell
- Format: cell-based
- Setup conditions: CHO, maximum current at highest dose relative to reference potentiator at maximal concentration (upper limit) and vehicle (lower limit); read-out: TMEM16A QPATCH assay EC50 V3 Assay Window (% TMEM16A max activation)
- Description: Automated Patch Clamping Assay to Measure TMEM16A Activity in Whole-Cell […] The ion channel activity of TMEM16A (abc) expressed in CHO cells was assed using an automated patch clamp system (Qpatch, Sophion). […] Curve fitting is constrained between the lowest concentration (vehicle-only addition) and the highest current value measured within the concentration range. […]
Assignment: determine reported Emax for the given molecules.
Numeric answer only, unit % assumed.

Please give measured Emax of the following entry: C[C@H](NC(=O)c1cc(-c2cccc(-c3ncc(C(=O)N[C@H](C)C4CC4)o3)c2)nn1CC(O)C(F)(F)F)C1CC1 (some centres unmarked)
119

Indicate its recorded Emax; the molecule in question is "CCCC(CCC)NC(=O)c1cc(-c2cccc(-c3ncc(C(=O)NC(CC)CC)o3)c2)[nH]n1"
90

Identify the reported Emax for the following entry. "CCC(CC)NC(=O)c1cnc(-c2cccc(-c3cc(C(=O)N4CCC(C)(OC)CC4)n[nH]3)c2)o1"
77

Please give the documented Emax of "C[C@H](NC(=O)c1nnc(-c2cccc(-c3ncc(C(=O)NC45CC6CC(CC(C6)C4)C5)o3)c2)[nH]1)C1CC1"
85

Supply Emax value. Item: "C[C@H](NC(=O)c1cnc(-c2cccc(-c3nnc(C(=O)NC4CCC(F)(F)CC4)[nH]3)c2)o1)C1CC1"
80

Check the records and state Emax for "CCC(CC)NC(=O)c1cc(-c2cccc(-c3ncc(C(=O)N[C@H](C)C4CCCCC4)o3)c2)[nH]n1"
72

// fetch Emax given entry CCC(CC)NC(=O)c1cnc(-c2cccc(-c3cc(C(=O)NC(COC)C(C)C)n[nH]3)c2)o1 (centres unmarked)
97

Provide only the value of recorded Emax for "CC(C)[C@H](C)NC(=O)c1cnc(-c2cccc(-c3nnc(C(=O)N[C@@H](C)C4CC4)[nH]3)c2)o1"
80

Specify measured Emax for "COC(=O)[C@H](CC(C)C)NC(=O)c1cc(-c2cccc(-c3ncc(C(=O)N[C@@H](CC(C)C)C(=O)OC)o3)c2)[nH]n1" .
77

Determine from records and report Emax for "CCC(CC)NC(=O)c1cnc(-c2cccc(-c3nc(C(=O)NC(CC)CC)n(CCN4Cc5ccccc5C4)n3)c2)o1"
103

Identify Emax associated with the molecule "CCC(CC)NC(=O)c1cc(-c2cccc(-c3ncc(C(=O)N[C@@H](C)CC)o3)c2)[nH]n1"
75

Entry "CCC(CC)NC(=O)c1cnc(-c2cccc(-c3cc(C(=O)NCCSC(C)(C)C)n[nH]3)c2)o1" needs its Emax filled in; supply it.
79

Give me measured Emax, please, for this molecule: "CCC(CC)NC(=O)c1cnc(-c2cccc(-c3cc(C(=O)N[C@@H](C)C4CC4)n[nH]3)c2)o1"
90

Tell me Emax reported for "CCC(CC)NC(=O)c1cnc(-c2cccc(-c3cc(C(=O)N[C@@H](CC(C)C)C(=O)OC)n[nH]3)c2)o1"
87

----------
- Assayed system: abc isoform of human TMEM16A channel expressed in CHO cells (Homo sapiens, UniProt Q5XXA6, DEL476-501)
- Construct: expressed in transfected cells; host or cells: CHO cells, doxycycline-inducible expression under Blasticidin/Zeocin selection
- Sequence (Q5XXA6 with tags, fused parts or gaps isoform Q5XXA6-5 DEL539-564): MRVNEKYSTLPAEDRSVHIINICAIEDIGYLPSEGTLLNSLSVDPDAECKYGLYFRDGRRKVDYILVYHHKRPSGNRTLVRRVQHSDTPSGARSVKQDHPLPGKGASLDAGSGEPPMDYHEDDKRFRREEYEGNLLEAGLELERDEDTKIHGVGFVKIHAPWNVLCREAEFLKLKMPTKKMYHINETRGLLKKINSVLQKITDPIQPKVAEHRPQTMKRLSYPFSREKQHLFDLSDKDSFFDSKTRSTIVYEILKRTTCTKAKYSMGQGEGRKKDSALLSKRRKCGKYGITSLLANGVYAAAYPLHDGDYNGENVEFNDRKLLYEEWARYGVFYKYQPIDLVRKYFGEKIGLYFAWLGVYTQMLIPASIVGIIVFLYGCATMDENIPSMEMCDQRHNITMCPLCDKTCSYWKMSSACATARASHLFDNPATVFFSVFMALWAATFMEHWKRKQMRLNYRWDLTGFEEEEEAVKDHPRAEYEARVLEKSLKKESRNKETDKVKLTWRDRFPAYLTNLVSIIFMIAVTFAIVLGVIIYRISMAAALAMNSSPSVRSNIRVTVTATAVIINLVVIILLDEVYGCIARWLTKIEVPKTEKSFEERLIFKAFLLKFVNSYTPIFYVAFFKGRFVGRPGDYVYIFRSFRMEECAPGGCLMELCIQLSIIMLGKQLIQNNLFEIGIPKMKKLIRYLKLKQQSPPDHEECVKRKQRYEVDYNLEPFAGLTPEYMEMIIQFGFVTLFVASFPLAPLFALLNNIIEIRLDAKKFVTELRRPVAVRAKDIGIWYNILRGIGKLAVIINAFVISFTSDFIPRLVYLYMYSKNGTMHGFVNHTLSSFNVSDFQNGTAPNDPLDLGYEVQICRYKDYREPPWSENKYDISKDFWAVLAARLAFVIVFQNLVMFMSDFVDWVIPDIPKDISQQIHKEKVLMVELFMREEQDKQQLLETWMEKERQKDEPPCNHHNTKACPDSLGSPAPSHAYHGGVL
- Measurement protocol: Automated patch clamping (QPatch) assay to measure TMEM16A activity in whole-cell
- Format: cell-based
- Setup conditions: CHO, maximum current at highest dose relative to reference potentiator at maximal concentration (upper limit) and vehicle (lower limit); read-out: TMEM16A QPATCH assay EC50 V3 Assay Window (% TMEM16A max activation)
Assign Emax to each entry below.
Answer format: numeric, % implied, no suffix.

Look up and report measured Emax for this entry: "CCC(CC)NC(=O)c1cc(-c2cccc(-c3ncc(C(=O)N[C@H](C(=O)OC(C)(C)C)c4ccccc4)o3)c2)[nH]n1"
81

Input "CCC(CC)NC(=O)c1cnc(-c2cccc(-c3cc(C(=O)N[C@@H](C)C4CC4)n(CCOC(C)C)n3)c2)o1" , output reported Emax.
137

Give the reported value of Emax for this record: CCC(CC)NC(=O)c1cnc(-c2cccc(-c3cc(C(=O)NC(C)C4CCC4)n[nH]3)c2)o1 (centres unmarked)
95

Given "CCOC(=O)[C@@H](NC(=O)c1cc(-c2cccc(-c3ncc(C(=O)NC(C4CC4)C4CC4)o3)c2)nn1CC(C)(C)O)C(C)C" , respond with its Emax.
116

Report Emax for "CCC(CC)NC(=O)c1cnc(-c2cccc(-c3cc(C(=O)NCc4ccc(C5(C(F)(F)F)N=N5)cc4)n[nH]3)c2)o1"
69

Output measured Emax for this item: "CCC(CC)NC(=O)c1cnc(-c2cccc(-c3ncc(C(=O)NC(CC)CC)o3)c2)o1"
97

Using the record for "CCOC(=O)[C@@H](NC(=O)c1cnc(-c2cccc(-c3cc(C(=O)NC(C4CC4)C4CC4)n(CCCO)n3)c2)o1)C(C)C" , state its measured Emax.
154

Please report the measured Emax for "COC(=O)[C@@H](CSC)NC(=O)c1cnc(-c2cccc(-c3cc(C(=O)N[C@@H](C)C4CC4)n[nH]3)c2)o1"
83

Using known records, supply Emax for CCC(CC)NC(=O)c1cnc(-c2cccc(-c3cc(C(=O)N[C@@H](C)C4CC4)n(CC(C)O)n3)c2)o1 (some centres unmarked)
104

For "CCOC(=O)[C@@H](NC(=O)c1cnc(-c2cccc(-c3cc(C(=O)NC(CC)CC)n(CCN4CCOCC4)n3)c2)o1)C(C)C" , write its Emax.
90

Identify measured Emax corresponding to CCOC(=O)[C@@H](NC(=O)c1cnc(-c2cccc(-c3cc(C(=O)NC(C(F)F)C4CC4)[nH]n3)c2)o1)C(C)C (some centres unmarked)
99

Give me measured Emax, please, for this molecule: "CCOC(=O)[C@H](CC1CCCCC1)NC(=O)c1cc(-c2cccc(-c3ncc(C(=O)NC(CC)CC)o3)c2)[nH]n1"
66

Annotate the molecule "CCC(CC)NC(=O)c1cnc(-c2cccc(-c3cc(C(=O)N[C@H](C)C4CC4)[nH]n3)c2)o1" with its measured Emax.
78

Please list Emax recorded for the molecule "CCC(CC)NC(=O)c1cc(-c2cccc(-c3ncc(C(=O)NC(C)(C)C)o3)c2)[nH]n1"
112
